The measured values listed here are drawn from patent US11185100B2.

subject of test: T1R1/T1R3 receptor (Felis catus)
test details: Activation of T1R1/T1R3 receptor by transmembrane compounds and nucleotide derivatives, conducted as in Examples 1, 2 and 5 (Example 7)
Assay type: cell-based, cat
So basically: is Thres +Alanine (20 mM) under 0.3 mM? Then met. Not under? Then not met.

Inquiry: Is it true that Thres +Alanine (20 mM) reported for O=C(NCCc1ccccc1)c1cccnc1 [N-phenethylnicotinamide] is less than 0.3 mM?
Reply text: met

Inquiry: Is it true that Thres +Alanine (20 mM) reported for O=C(NCCCCNC(=O)c1cccnc1)c1cccnc1 [N,N′-(butane-1,4-diyl)dinicotinamide] is less than 0.3 mM?
Reply text: not met

Inquiry: Is it true that Thres +Alanine (20 mM) reported for Nc1nc2c(ncn2[C@@H]2O[C@H](COP(=O)(O)OP(=O)(O)O)[C@@H](O)[C@H]2O)c(=S)[nH]1 [6-Thioguanosine-5′-O-diphosphate] is less than 0.3 mM?
Reply text: met

Inquiry: Is it true that Thres +Alanine (20 mM) reported for "O=C1CC(=O)N(Cc2ccccc2)C(=O)N1Cc1ccccc1" is less than 0.3 mM?
Reply text: met

Inquiry: Is it true that Thres +Alanine (20 mM) reported for O=C(O)C1CCCCC1C(=O)Nc1cc(Cl)cc(Cl)c1 (centres unmarked) is less than 0.3 mM?
Reply text: met

Inquiry: Is it true that Thres +Alanine (20 mM) reported for O=C(NCCc1ccccc1)c1ccccc1 [N-phenethylbenzamide] is less than 0.3 mM?
Reply text: not met

====

subject of test: T1R1/T1R3 receptor (Felis catus, UniProt E3UMS2)
test details: Activation of T1R1/T1R3 receptor by transmembrane compounds alone or with alanine, IMP, GMP, phenylalanine; HEK293 cells, calcium fluorescence (Example 5)
Type: cell-based, cat
experimental setup: read-out: EC50 (effect with 0.2 mM IMP); Table 20 controls; in the presence of 0.2 mM IMP
measured endpoint: EC50 (mM)
Provide only the numeric value, understood in mM.

Lab entry: T1R1/T1R3 receptor (Felis catus, UniProt E3UMS2) assay, compound C[C@H](N)C(=O)O [L-Alanine, reference compound] , EC50 = 13.6

====

subject of test: T1R1/T1R3 receptor (Felis catus)
test details: Activation of T1R1/T1R3 receptor by transmembrane compounds alone or with alanine, IMP, GMP, phenylalanine; HEK293 cells, calcium fluorescence (Example 5)
Type: cell-based, cat
experimental setup: +IMP (0.2 mM); relative to Ala
Source text: Methods: HEK293 cells that stably express T1R3 and inducibly express T1R1 were exposed to transmembrane compounds alone or in combination with one or more amino acids and/or one or more nucleotides to activate the umami receptor. Activation of the T1R1/T1R3 receptor was detected by a change in intracellular calcium levels using a calcium sensitive fluorescent dye. Cells that express T1R3 but not T1R1 were used as a control. A FLIPR® Tetra or a FlexStation® 3 was used for data capture. […]
measured endpoint: Max resp % of Ala +IMP (0.2 mM)

Lab entry: T1R1/T1R3 receptor (Felis catus) assay, compound COC(=O)C(NC(=O)/C=C/c1cccs1)C(C)C (stereo not drawn) , Max resp % of Ala +IMP (0.2 mM) = 59.9%

Lab entry: T1R1/T1R3 receptor (Felis catus) assay, compound "O=C(CN1C(=O)C(=O)N(Cc2ccccc2)C1=O)c1ccccc1" , Max resp % of Ala +IMP (0.2 mM) = 135.7%

Lab entry: T1R1/T1R3 receptor (Felis catus) assay, compound CCC(CC)NC(=O)c1ccc(OC)c(OC)c1 [3,4-dimethoxy-N-(pentan-3-yl)benzamide] , Max resp % of Ala +IMP (0.2 mM) = 81.0%

Lab entry: T1R1/T1R3 receptor (Felis catus) assay, compound CCOC(=O)C(NC(=O)c1ccc2c(c1)OCO2)C(C)C (stereo not drawn) , Max resp % of Ala +IMP (0.2 mM) = 52.8%

Lab entry: T1R1/T1R3 receptor (Felis catus) assay, compound CC1CCCC(NC(=O)c2ccc3c(c2)OCO3)C1C (stereo not drawn) , Max resp % of Ala +IMP (0.2 mM) = 95.4%

Lab entry: T1R1/T1R3 receptor (Felis catus) assay, compound "CCC(CC)NC(=O)c1ccc(Br)o1" , Max resp % of Ala +IMP (0.2 mM) = 149.6%

Lab entry: T1R1/T1R3 receptor (Felis catus) assay, compound "CSc1ccc(-c2nnn(Cc3ccccn3)n2)cc1" , Max resp % of Ala +IMP (0.2 mM) = 80.7%

Lab entry: T1R1/T1R3 receptor (Felis catus) assay, compound CCCC(C)NC(=O)/C=C/c1ccc(OC)c(OC)c1 (stereo not drawn) , Max resp % of Ala +IMP (0.2 mM) = 86.9%

Lab entry: T1R1/T1R3 receptor (Felis catus) assay, compound "CCC(CC)NC(=O)c1ccc2c(c1)OCCO2" , Max resp % of Ala +IMP (0.2 mM) = 70.9%

Lab entry: T1R1/T1R3 receptor (Felis catus) assay, compound "O=C(NCCc1ccccc1)C(=O)NCc1cccnc1" , Max resp % of Ala +IMP (0.2 mM) = 61.9%

Lab entry: T1R1/T1R3 receptor (Felis catus) assay, compound COc1ccc(C(=O)NC(C)c2ccccc2)cc1C (stereo not drawn) , Max resp % of Ala +IMP (0.2 mM) = 95.6%

Lab entry: T1R1/T1R3 receptor (Felis catus) assay, compound CCC(CC)NC(=O)c1ccc(C)c(C)c1 [3,4-dimethyl-N-(pentan-3-yl)benzamide] , Max resp % of Ala +IMP (0.2 mM) = 125.7%

Lab entry: T1R1/T1R3 receptor (Felis catus) assay, compound COc1ccc(/C=C/C(=O)NC2CCCCC2C)cc1 (stereo not drawn) , Max resp % of Ala +IMP (0.2 mM) = 144.0%

Lab entry: T1R1/T1R3 receptor (Felis catus) assay, compound CCCC(C)NC(=O)c1ccc(OC)c(C)c1 (stereo not drawn) , Max resp % of Ala +IMP (0.2 mM) = 128.9%

Lab entry: T1R1/T1R3 receptor (Felis catus) assay, compound "CCCC(CCC)C(=O)Nc1ccc2c(c1)OCO2" , Max resp % of Ala +IMP (0.2 mM) = 108.0%

Lab entry: T1R1/T1R3 receptor (Felis catus) assay, compound "CCC(CC)NC(=O)/C=C/c1ccc(OC)cc1" , Max resp % of Ala +IMP (0.2 mM) = 171.7%

Lab entry: T1R1/T1R3 receptor (Felis catus) assay, compound O=C(Nc1ccccc1Br)N[C@@H]1c2ccccc2C[C@@H]1O (stereo in doubt) , Max resp % of Ala +IMP (0.2 mM) = 44.9%

Lab entry: T1R1/T1R3 receptor (Felis catus) assay, compound COc1cc(C(=O)NC(C(N)=O)c2ccccc2)cc(Cl)c1OC (stereo not drawn) , Max resp % of Ala +IMP (0.2 mM) = 49.4%
